Reported pKi, UniProt P09874.
pKi: −log10 of the molar value.
Readout: pKi

>>> reported("NC(=O)c1cccc2[nH]c(-c3ccc(CN4CCCC4)cc3)nc12")
8.23
>>> reported("NC(=O)c1cccc2[nH]c(-c3cccc(CN4CCCC4)c3)nc12")
7.99
>>> reported("NC(=O)c1cccc2[nH]c(-c3cccc(CN(CCO)CCO)c3)nc12")
6.57

----------
// endpoint Ki / system Poly [ADP-ribose] polymerase 1 (Homo sapiens)
Readout: Ki

>>> reported("NC(=O)c1cccc2[nH]c(-c3cccc(CN4CCOCC4)c3)nc12")
"31 nM"
>>> reported("CN(C)Cc1cccc(-c2nc3c(C(N)=O)cccc3[nH]2)c1")
"5.6 nM"
>>> reported("CN1CCN(Cc2ccc(-c3nc4c(C(N)=O)cccc4[nH]3)cc2)CC1")
"8.7 nM"
>>> reported("NC(=O)c1cccc2[nH]c(-c3ccc(CN4CCCCC4)cc3)nc12")
"7.2 nM"
>>> reported("CN1CCN(Cc2cccc(-c3nc4c(C(N)=O)cccc4[nH]3)c2)CC1")
"9.8 nM"
>>> reported("NC(=O)c1cccc2[nH]c(-c3ccc(CN4CCOCC4)cc3)nc12")
"12 nM"
